These measurements were taken from the supplement of paper PMC6555819.

# Tested on: PPARg DBDmut IVT, anti-PPARg (DBD mutation: PPARg1 K132A/R137A, NR concentration 270 nM)
# method description: PBM binding z-score (relative to random genomic background probes); higher = stronger binding; sequences stand for … in GC…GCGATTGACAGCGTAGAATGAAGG
readout label: PBM binding z-score
One number for each entry.

Would you please look over these solved cases?
> print(dat)
                       entry.sequence  result
1  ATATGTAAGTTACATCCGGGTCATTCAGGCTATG    1.58
2  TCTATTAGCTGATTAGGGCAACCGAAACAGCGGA   0.319
3  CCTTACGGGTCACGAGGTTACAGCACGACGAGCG    2.53
4  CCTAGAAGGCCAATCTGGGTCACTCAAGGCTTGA   -1.07

Take each entry in turn and give its PBM binding z-score.
1. AGTCAAAGTACAGGACGAGGTAACGTAAAGCACG
2. ATCTCTAGGTAACCAAGTACAGTGAATGCCGAAC
3. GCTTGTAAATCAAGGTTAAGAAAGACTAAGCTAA
4. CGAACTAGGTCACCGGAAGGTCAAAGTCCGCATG
5. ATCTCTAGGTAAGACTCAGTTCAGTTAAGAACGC
6. CCTACTGGGCCACGAAAGTTCATTGATTCAGTGA

Response line:
[0.384, 1.42, 0.161, 0.855, 0.801, 0.518]

Your task in this section: give PBM binding z-score for each listed record.
1. CCGACTGGGGTATAAGGTTACCATAAGCCAGCCC
2. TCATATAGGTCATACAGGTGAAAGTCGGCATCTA
3. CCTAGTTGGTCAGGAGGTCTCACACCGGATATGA
4. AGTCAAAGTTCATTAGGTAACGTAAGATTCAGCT
5. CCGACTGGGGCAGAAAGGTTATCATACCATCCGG

Response line:
-1.39
2.34
0.59
1.88
-1.06

Prompt line: Dear colleague, I am looking for the recorded PBM binding z-score of the following sequence: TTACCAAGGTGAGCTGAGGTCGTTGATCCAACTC
Response line: -0.723

###

So I've got a bunch of sequences here, and I need their PBM binding z-score values.
# Test system: LXRb:RXRa (NR concentration 270 nM, RXRa partner concentration 90 nM)
# method description: PBM binding z-score (relative to random genomic background probes); higher = stronger binding; sequences stand for … in GC…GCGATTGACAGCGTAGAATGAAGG
One number for each entry.

I'm hoping you can list PBM binding z-score for every sequence here, please.
1. GCTGCTAGGTCAGGTTGGTCAGTTAACGGGTACG
2. ATATGTAGGTTGCATCCGGGTCATTCAGGCTATG
3. GCGACTGGGGCAAAGCAGGTTACCATTAGGTTGG
4. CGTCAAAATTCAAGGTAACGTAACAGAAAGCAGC

Response line:
1: 0.719; 2: 1.29; 3: 0.31; 4: 0.13

###

# Tested on: PPARg homodimer (NR concentration 180 nM)
# method description: PBM binding z-score (relative to random genomic background probes); higher = stronger binding; sequences stand for … in GC…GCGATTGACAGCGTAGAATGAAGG
Kindly state PBM binding z-score for each of the entries shown.
Numbers only.

Use the examples below as a reference point.
> print(dat)
                        entry.sequence                               test.target  result
 1  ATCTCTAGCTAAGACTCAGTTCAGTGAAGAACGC  PPARg homodimer (NR concentration 180 nM)   0.595
 2  CAAACTAGGTCAAGGTCAGAGTCGGTTTGTGCCA  PPARg homodimer (NR concentration 180 nM)    4.13
 3  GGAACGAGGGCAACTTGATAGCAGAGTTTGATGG  PPARg homodimer (NR concentration 180 nM)   0.796
 4  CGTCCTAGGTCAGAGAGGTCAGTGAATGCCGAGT  PPARg homodimer (NR concentration 180 nM)    5.14
 5  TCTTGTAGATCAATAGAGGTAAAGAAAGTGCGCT  PPARg homodimer (NR concentration 180 nM)  -0.815
 6  TAGCCTAGGTCATTCAGGGGCCAGTGTAGAAAGC  PPARg homodimer (NR concentration 180 nM)    1.39
 7  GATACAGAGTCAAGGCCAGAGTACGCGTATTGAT  PPARg homodimer (NR concentration 180 nM)  -0.301
 8  ATCTCTAGGTAACAAGTTCAATGAAAGAGAGGAC  PPARg homodimer (NR concentration 180 nM)    1.45
 9  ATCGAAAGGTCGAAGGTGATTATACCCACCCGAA  PPARg homodimer (NR concentration 180 nM)    1.86
10  CCTAGCATGCCAGGGTCACTCAAGCATTTCGCTT  PPARg homodimer (NR concentration 180 nM)   0.817

Each sequence below has a recorded value; state its PBM binding z-score.
1. CCTCGCAGGCCAGGGTCACTCAAGCATTTCGCTT
2. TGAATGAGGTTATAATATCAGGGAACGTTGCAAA
3. CGTCCAAGGTCAAGATCAGTGAAAGAGACTCGAA

Response line:
1.02
0.756
2.49

Below is a list of sequences. For each, state its recorded PBM binding z-score.
1. GCTCGGAGGACAAGGTCAGCGCTTTGTCCGTAGA
2. ACTAGTTGGTCAGCTGTGGTCACACACAATTCGG

Response line:
1.12
0.101

Please give PBM binding z-score, item by item, for the list that follows.
1. CAAACTTGGTCACGAAAGGTCAAAGTCGAATGAC
2. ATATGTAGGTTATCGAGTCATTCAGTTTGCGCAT
3. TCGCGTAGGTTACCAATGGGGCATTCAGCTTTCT

Response line:
1: 4.33; 2: 1.91; 3: -0.721

###

Field: PBM binding z-score. Provide a value for each of the sequences that follow.
# System: RARb homodimer (NR concentration 270 nM)
# method description: PBM binding z-score (relative to random genomic background probes); higher = stronger binding; sequences stand for … in GC…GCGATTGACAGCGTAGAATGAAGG

For every item in the list below, what is its measured PBM binding z-score?
1. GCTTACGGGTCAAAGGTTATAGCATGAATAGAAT
2. CAAACTAGGTCATAGGTCAAAGTCGAGCCAACCA
3. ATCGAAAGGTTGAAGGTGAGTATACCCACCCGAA

Response line:
[3.25, 4.27, 0.919]

Report PBM binding z-score for each item below.
1. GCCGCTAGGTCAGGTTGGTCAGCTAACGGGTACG
2. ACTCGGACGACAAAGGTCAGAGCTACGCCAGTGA
3. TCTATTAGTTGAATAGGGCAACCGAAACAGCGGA
4. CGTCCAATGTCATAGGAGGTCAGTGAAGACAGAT
5. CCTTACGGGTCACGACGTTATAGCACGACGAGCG
6. TCTTGTAGATCAGCAGGGTAAGAAAGCTGGCCAA
7. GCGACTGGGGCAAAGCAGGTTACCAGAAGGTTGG
8. CCGAGTAGGTTATGGGGCATTCTGGCAACGGTGA

Response line:
1: 2.77; 2: 4.21; 3: 0.977; 4: 3.62; 5: 3.34; 6: -0.187; 7: 1.32; 8: 1.05

Lab note: each sequence below needs its PBM binding z-score filled in.
1. ATCTCTAGGTGACCAAGTTCAGTGAATGCCGAAC
2. TCTTGTAGATCAATTGAGGTTAAGAAAGTGCGCT

Response line:
1. 1.77
2. 0.953

Please supply PBM binding z-score for each of the following items, keeping them in order.
1. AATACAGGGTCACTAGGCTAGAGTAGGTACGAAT
2. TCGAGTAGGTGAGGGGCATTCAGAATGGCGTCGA
3. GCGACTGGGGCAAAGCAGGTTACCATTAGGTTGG
4. ATCTCTAGGTAAGACTCAGTTAAGTGAAGAACGC

Response line:
3.33
0.716
0.874
0.172

Each sequence below has a recorded value; state its PBM binding z-score.
1. CCTACTGGGCCTAGGTCATTGATCAGTCAAAGCA
2. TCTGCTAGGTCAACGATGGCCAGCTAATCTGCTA
3. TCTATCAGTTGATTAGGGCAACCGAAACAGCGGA
4. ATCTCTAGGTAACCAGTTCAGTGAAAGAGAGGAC
5. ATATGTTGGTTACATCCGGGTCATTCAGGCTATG
6. CCGACTGGGGCATAAGGTTACCAGAAGCCAGCCC
7. GCATATAGGTAATACAAGGTGAAAGTCCGATTGT
8. TCTGCTAGCTCAACGATGGTCAGCTAATCTGCTA

Response line:
1: 2.06; 2: 2.85; 3: 0.548; 4: 1.05; 5: 2.54; 6: 1.99; 7: 1.03; 8: -0.694

Batch request: PBM binding z-score for each of the following sequences.
1. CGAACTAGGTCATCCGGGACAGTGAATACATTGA
2. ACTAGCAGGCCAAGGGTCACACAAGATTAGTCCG
3. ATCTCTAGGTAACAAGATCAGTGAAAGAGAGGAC
4. CCGACTGGGGCATAAGGTTACCATAAGCCAGCCC

Response line:
1. 2.87
2. 4.06
3. 0.262
4. 1.69

Dear colleague, could you please provide PBM binding z-score for the sequences listed below?
1. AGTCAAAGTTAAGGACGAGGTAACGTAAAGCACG
2. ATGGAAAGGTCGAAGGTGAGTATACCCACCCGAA
3. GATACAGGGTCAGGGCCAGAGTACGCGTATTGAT
4. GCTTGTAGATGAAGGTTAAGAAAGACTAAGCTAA
5. CAAACTAGTTCACAGAGGTCAAAGTCCGTGCGTA

Response line:
0.455
2.68
3.15
0.181
4.92

Please state PBM binding z-score for every sequence in the list that follows.
1. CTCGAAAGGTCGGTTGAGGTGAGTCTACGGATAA
2. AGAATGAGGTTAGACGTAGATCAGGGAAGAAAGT
3. ACTATTAGTTGACTTAGAGCAACCGATACGACGC

Response line:
2.36
0.932
-0.15
